Experiment: chemical genetic growth profiling, strain panel (AID 1159580);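 note: tested at 20 µM; growth read once vehicle control cultures reached saturation at 30 °C; 1 = growth at the plate median or of vehicle wells; lower values mean less growth of the strain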
Conditions: S. cerevisiae deletion strains, growth OD, locus YLL041C, strain sdh2, stronger effect = lower value
Screen size: about 5,500 compounds; about 2,000 (36%) were called active. Another 18% or so got no clear call; they are omitted. This is one part of the list.
normalized growth values, listed per item
Lab note: write the figure by itself, no unit.

In plain terms, CC(C)(C)NC[C@H](O)c1ccc(O)c(CO)c1 has a documented normalized growth of 1.02

More entries:
For this compound ( O=C1NC(O)=NC1(c1ccccc1)c1ccccc1 ), measured normalized growth is 1.01

Entry C[C@H]1c2cccc(O)c2C(O)=C2C(=O)[C@]3(O)C(O)=C(C(N)=O)C(=O)[C@@H](N(C)C)[C@@H]3[C@@H](O)[C@@H]21 , normalized growth reported as 0.973

Form: compound = Nc1ccc(C(=O)O)cc1 ; normalized growth = 1.02
